Assign pIC50 to each entry below.
# Measurement Target: recombinant human Myt1 (Homo sapiens)
# Construct: full length PKMYT1 recombinant human protein expressed in insect cells
# Sequence (Q99640 1-499): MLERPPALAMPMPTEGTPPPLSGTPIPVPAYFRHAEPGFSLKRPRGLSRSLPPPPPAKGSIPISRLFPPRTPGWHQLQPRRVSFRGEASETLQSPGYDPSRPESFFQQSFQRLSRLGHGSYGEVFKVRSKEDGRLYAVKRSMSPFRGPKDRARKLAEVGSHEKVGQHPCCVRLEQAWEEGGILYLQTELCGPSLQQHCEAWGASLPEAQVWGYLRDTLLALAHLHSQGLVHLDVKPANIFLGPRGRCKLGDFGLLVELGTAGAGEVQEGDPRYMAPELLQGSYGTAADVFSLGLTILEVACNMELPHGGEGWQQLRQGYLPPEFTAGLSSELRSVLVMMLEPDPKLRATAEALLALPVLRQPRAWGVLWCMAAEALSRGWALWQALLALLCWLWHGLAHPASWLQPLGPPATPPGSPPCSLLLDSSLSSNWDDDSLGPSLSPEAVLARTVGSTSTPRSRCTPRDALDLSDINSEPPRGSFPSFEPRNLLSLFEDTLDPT
# Experiment: Myt1 enzymatic assay (ADP-Glo kinase assay, IC50 and % max inhibition)
# Measurement Context: recombinant human Myt1 18 nM, ATP 10 μM
Remember the convention: pIC50 equals -log10 of concentration in molar.

// query For recombinant human Myt1 (Homo sapiens), provide pIC50 of Cc1ccc(O)cc1-n1c(N)c(C(N)=O)c2nc(-c3nccs3)ccc21 [Compound 24] please.
// result 7.54

// query For recombinant human Myt1 (Homo sapiens), provide pIC50 of Cc1ccc(O)c(C)c1-n1c(N)c(C(N)=O)c2nc(-c3cc4ccccc4n3C)cnc21 [Compound 247] please.
// result 7.77

// query For recombinant human Myt1 (Homo sapiens), provide pIC50 of Cc1ccc(O)c(C)c1-n1c(N)c(C(N)=O)c2nc(-c3nc4ccccc4n3C)cnc21 [Compound 254] please.
// result 8.00

// query For recombinant human Myt1 (Homo sapiens), provide pIC50 of Cc1ccc(O)c(C)c1-n1c(N)c(C(N)=O)c2nc(-c3nc(C)c(C)o3)cnc21 [Compound 255] please.
// result 6.96

// query For recombinant human Myt1 (Homo sapiens), provide pIC50 of Cc1ccc(O)cc1-n1c(N)c(C(N)=O)c2nc(-c3cccc(CC(=O)O)c3)ccc21 [Compound 20] please.
// result 6.74

// query For recombinant human Myt1 (Homo sapiens), provide pIC50 of Cc1ccc(O)cc1-n1c(N)c(C(N)=O)c2ncc(C#CCN3CCOCC3)nc21 [Compound 163] please.
// result 6.48

// query For recombinant human Myt1 (Homo sapiens), provide pIC50 of Cc1ccc(O)cc1-n1c(N)c(C(N)=O)c2nc(-c3ccc(N4CCN(CCO)CC4)cc3)ccc21 [Compound 13] please.
// result 6.72

// query For recombinant human Myt1 (Homo sapiens), provide pIC50 of Cc1ccc(O)c(C)c1-n1c(N)c(C(N)=O)c2ncc(C#C[C@@H]3COC[C@H]3O)nc21 [Compound 234] please.
// result 7.85

// query For recombinant human Myt1 (Homo sapiens), provide pIC50 of Cc1ccc(O)c(C)c1-n1c(N)c(C(N)=O)c2nc(C#CC3CCCN3)cnc21 (centres unmarked) [Compound 3] please.
// result 6.34

###

Assign pIC50 to each entry below.
# Measurement Target: recombinant human Myt1 (Homo sapiens)
# Construct: full length PKMYT1 recombinant human protein expressed in insect cells
# Experiment: Myt1 enzymatic assay (ADP-Glo kinase assay, IC50 and % max inhibition)
# Measurement Context: recombinant human Myt1 18 nM, ATP 10 μM
Remember the convention: pIC50 equals -log10 of concentration in molar.

// query Give the measured pIC50 of Cc1ccc(O)c(C)c1-n1c(N)c(C(N)=O)c2ncc(C#Cc3ccccc3)nc21 [Compound 230] .
// result 6.43

// query Give the measured pIC50 of Cc1ccc(O)cc1-n1c(N)c(C(N)=O)c2nc(-c3cn[nH]c3)ccc21 [Compound 5] .
// result 6.56

// query Give the measured pIC50 of Cc1ccc(O)cc1-n1c(N)c(C(N)=O)c2nc(-c3ccc(N)nc3)ccc21 [Compound 8] .
// result 6.79

// query Give the measured pIC50 of Cc1ccc(O)c(C)c1-n1c(N)c(C(N)=O)c2nc(-c3ncco3)cnc21 [Compound 60] .
// result 8.00

// query Give the measured pIC50 of Cc1ccc(O)cc1-n1c(N)c(C(N)=O)c2ncc(C(F)(F)F)cc21 [Compound 212] .
// result 5.46

// query Give the measured pIC50 of Cc1ccc(O)cc1-n1c(N)c(C(N)=O)c2nc(C(F)(F)F)ccc21 [Compound 213] .
// result 6.71

// query Give the measured pIC50 of Cc1ccc(O)c(C)c1-n1c(N)c(C(N)=O)c2nc(C#N)cnc21 [Compound 219] .
// result 7.34

// query Give the measured pIC50 of Cc1ccc(O)cc1-n1c(N)c(C(N)=O)c2nc(NCc3ccccc3)cnc21 [Compound 282] .
// result 6.20

###

# Measurement Target: recombinant human Myt1 (Homo sapiens, UniProt Q99640)
# Construct: full length PKMYT1 recombinant human protein expressed in insect cells
# Sequence (Q99640 1-499): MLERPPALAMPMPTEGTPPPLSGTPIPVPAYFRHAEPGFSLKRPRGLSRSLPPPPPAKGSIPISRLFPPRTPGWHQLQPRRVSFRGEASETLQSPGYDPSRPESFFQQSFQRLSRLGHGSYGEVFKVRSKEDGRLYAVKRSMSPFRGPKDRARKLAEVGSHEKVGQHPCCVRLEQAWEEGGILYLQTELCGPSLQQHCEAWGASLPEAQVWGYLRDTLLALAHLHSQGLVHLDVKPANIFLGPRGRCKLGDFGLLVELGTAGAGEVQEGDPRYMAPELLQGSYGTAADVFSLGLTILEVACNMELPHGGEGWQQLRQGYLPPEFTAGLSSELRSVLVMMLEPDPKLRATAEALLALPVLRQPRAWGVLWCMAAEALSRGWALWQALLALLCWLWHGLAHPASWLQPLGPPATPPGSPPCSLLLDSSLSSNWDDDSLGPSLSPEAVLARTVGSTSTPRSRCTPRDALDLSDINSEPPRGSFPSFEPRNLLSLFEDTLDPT
# Experiment: Myt1 enzymatic assay (ADP-Glo kinase assay, IC50 and % max inhibition)
# Measurement Context: recombinant human Myt1 18 nM, ATP 10 μM
Assign pIC50 to each entry below.
Remember the convention: pIC50 equals -log10 of concentration in molar.

// query Give the measured pIC50 of Cc1ccc(O)c(C)c1-n1c(N)c(C(N)=O)c2nc(C(=O)Nc3cccnc3)cnc21 [Compound 243] .
// result 7.16

// query Give the measured pIC50 of Cc1ccc(O)c(C)c1-n1c(N)c(C(N)=O)c2ncc(C#CC3(C)COC3)nc21 [Compound 232] .
// result 7.96

// query Give the measured pIC50 of Cc1ccc(O)c(C)c1-n1c(N)c(C(N)=O)c2nc(N3CCNCC3)cnc21 [Compound 67] .
// result 7.85

// query Give the measured pIC50 of Cc1ccc(O)c(C)c1-n1c(N)c(C(N)=O)c2nc(-c3nccs3)c(C#CC3CC3)nc21 [Compound 214] .
// result 6.87

// query Give the measured pIC50 of CCN(CC)C(=O)c1cnc2c(n1)c(C(N)=O)c(N)n2-c1c(C)ccc(O)c1C [Compound 246] .
// result 7.08

// query Give the measured pIC50 of Cc1ccc(O)c(C)c1-n1c(N)c(C(N)=O)c2ncc(C#CC3(O)CCOC3)nc21 (stereo not drawn) [Compound 236] .
// result 7.80

// query Give the measured pIC50 of Cc1ccc(O)cc1-n1c(N)c(C(N)=O)c2nc(-c3ccnc(N)c3)ccc21 [Compound 22] .
// result 7.10

// query Give the measured pIC50 of Cc1ccc(O)c(C)c1-n1c(N)c(C(N)=O)c2ncc(C#CC3CCOCC3)nc21 [Compound 225] .
// result 7.47

###

# Measurement Target: recombinant human Myt1 (Homo sapiens, UniProt Q99640)
# Construct: full length PKMYT1 recombinant human protein expressed in insect cells
# Experiment: Myt1 enzymatic assay (ADP-Glo kinase assay, IC50 and % max inhibition)
# Measurement Context: recombinant human Myt1 18 nM, ATP 10 μM
Parameter Measured: IC50 (nM)
Respond numerically; units are nM and should not be typed.

// query Give the measured IC50 of Cc1ccc(O)c(C)c1-n1c(N)c(C(N)=O)c2nc(N3CCNC(=O)C3)cnc21 .
// result 10

// query Give the measured IC50 of Cc1ccc(O)c(C)c1-n1c(N)c(C(N)=O)c2ncc(C#CC3CC3)nc21 .
// result 21

// query Give the measured IC50 of Cc1ccc(O)cc1-n1c(N)c(C(N)=O)c2nc(-c3ccc(F)c(Cl)c3)ccc21 .
// result 1090

// query Give the measured IC50 of Cc1ccc(O)c(C)c1-n1c(N)c(C(N)=O)c2ncc(C#CCN3CCOCC3)nc21 .
// result 22
